Value source: paper PMC9482650

target: NHERF4_1, Q86UT5-2; test: holdup assay; design: key: below the threshold = too weak to quantify, mostly under pKd 3.1 to 4; settings: plain residues with an end cap or a label only (N-terminal biotin on a linker: ado-ado)
Sequence (Q86UT5 other isoform, or with tags, fused parts or gaps): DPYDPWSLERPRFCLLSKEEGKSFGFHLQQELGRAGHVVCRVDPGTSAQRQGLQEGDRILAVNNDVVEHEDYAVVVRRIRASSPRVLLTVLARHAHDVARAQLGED
measuredQuantity: pKd
Give bare numbers.

{"binder": "PPGKHLVTEV [KCNA7, Q96RP8]", "measuredQuantity": "pKd", "numericReadout": 3.94}

Batch request: pKd per item, same order as input.
1. PSVGSKKTVL [REELD1, A0A1B0GV85]
2. LKDDELKTKL [SLCO1A2, P46721]
3. EIPAQSPTCV [FZD10, Q9ULW2]

1. 3.95
2. 3.91
3. 3.91
